assay: AUC in intraduodenally dosed Sprague-Dawley rat plasma measured over 4 hrs by LC/MS/MS analysis; type: ADME, organism-based; parameters: time < 4 hr, route intraduodenal; conditions: Sprague-Dawley, plasma; also: test concentration or dose not given here
Measurement Name: AUC at 4 h (nM·h)
Answers are plain numbers, in nM·h.

{"columns": ["Smiles", "Unit Tag", "AUC at 4 h"],
 "data": [
  ["C=C[C@@H]1C[C@]1(NC(=O)[C@@H]1C[C@H](Oc2nccc3cc(OC)ccc23)CN1C(=O)[C@@H](NC(=O)OC(C)(C)C)C(C)(C)C)C(=O)NS(=O)(=O)C1CC1", "nM·h", 250],
  ["C=C[C@@H]1C[C@]1(NC(=O)[C@@H]1C[C@@H](Oc2ncnc3cc(OC)ccc23)CN1C(=O)[C@@H](NC(=O)OC(C)(C)C)C(C)(C)C)C(=O)NS(=O)(=O)C1CC1", "nM·h", 110]
]}

According to the records, this molecule `C=C[C@@H]1C[C@]1(NC(=O)[C@@H]1C[C@@H](Oc2cncc3cc(OC)ccc23)CN1C(=O)[C@@H](NC(=O)OC(C)(C)C)C(C)(C)C)C(=O)NS(=O)(=O)C1CC1` displays AUC at 4 h of 380

From: ChEMBL document CHEMBL3124900
